pKi: −log10 of the molar value.
The entries that follow carry pKi values tested on Prothrombin (Homo sapiens, UniProt P00734), drawn from several published reports.
Rule: Satisfied for pKi not less than 4, Not satisfied for anything less.

{"columns": ["Compound", "Qualitative Label"],
 "data": [
  ["COc1ccc(C(=O)Nc2ccccn2)cc1", "Not satisfied"]
]}

input: Is the recorded value of pKi equal to or greater than 4 for this compound? `CC[C@@H](N)CN1CCC[C@H]1C(=O)NCc1cccc(Cl)c1`
output: Not satisfied

input: Is the recorded value of pKi equal to or greater than 4 for this compound? N=C(N)c1ccc2[nH]cc(C(Cc3ccc(N)cc3)C(=O)Nc3ccc(-n4cnc5ccccc54)cc3)c2c1.O=C(O)C(F)(F)F (stereo not given)
output: Satisfied

input: Is the recorded value of pKi equal to or greater than 4 for this compound? `Cc1cc(NS(=O)(=O)c2ccccc2)cc(OCCCN)c1`
output: Not satisfied

input: Is the recorded value of pKi equal to or greater than 4 for this compound? `CN(C)C(=O)c1cccc(Oc2nc(Oc3cc(C(=N)N)ccc3O)c(F)c(N(C)CC(=O)O)c2F)c1`
output: Satisfied
